Tested on: HT-29
Assay: NCI tumour cell line growth inhibition, 48 h
Activity calls are given as the source filed them. Rule as the data show it: active = GI50 up to about 1.1 µM and inactive = higher.
property.label: GI50

# GI50 lookup, item CCOC(=O)C1C(=O)CC(C)(O)C(C(=O)OCC)C1c1ccc(N(C)C)cc1 (stereo not drawn)
> 100 µM (inactive)

# GI50 lookup, item c1ccc2c(c1)CC1c3[nH]c4ccccc4c3CCN21 (stereo not drawn)
> 10 µM (inactive)

# GI50 lookup, item COc1ccc(C2NC(=S)Nc3c2c(=O)oc2c3ccc3ccccc32)cc1 (stereo not drawn)
> 100 µM (inactive)

---

System: SW-620
Assay: NCI tumour cell line growth inhibition, 48 h
Active and inactive are the calls of the source. Rule as the data show it: active = GI50 up to about 1.1 µM and inactive = higher.
property.label: GI50

# GI50 lookup, item COC(=O)[C@@H]1[C@@H](c2cccc(Cl)c2)[C@H](C(=O)OC)C2(C[C@@]1(C)O)NCCS2 (stereo partly specified)
36.6 µM (inactive)

# GI50 lookup, item CC1=NNC(=O)C1C1C=C(c2c[nH]c3ccccc23)OC1=O (stereo unspecified)
> 100 µM (inactive)

# GI50 lookup, item CC(C)(C)OC(=O)NC(Cc1ccccc1)C(=O)OCN1C(=O)C2C3C=CC(C2C1=O)C1C2C(=O)N(COC(=O)C(Cc4ccccc4)NC(=O)OC(C)(C)C)C(=O)C2C31 (stereo unspecified)
26.3 µM (inactive)

# GI50 lookup, item COC(=O)/C=C(/C(=O)OC)c1c(C)cc2c(C)cc(C)cc(C)c1-2
7.18 µM (inactive)

# GI50 lookup, item CCCCC(=O)Oc1ccc2c(C)cc(=O)oc2c1
> 100 µM (inactive)

# GI50 lookup, item Cc1c(C(=O)c2ccc(N)c3ccccc23)c2ccccc2n1CCN1CCOCC1
26.1 µM (inactive)

# GI50 lookup, item COC(=O)C1=C(O)CCCC(C2CCCCC(=O)C2C(=O)OC)=C1 (stereo unspecified)
81.8 µM (inactive)

# GI50 lookup, item Cc1ccc(-c2cnc(NC3OC(COC(=O)c4ccccc4)C(OC(=O)c4ccccc4)C(OC(=O)c4ccccc4)C3OC(=O)c3ccccc3)s2)cc1 (stereo unspecified)
> 100 µM (inactive)

# GI50 lookup, item N#C/C(=C\c1cn(Cc2ccccc2)c2ccccc12)c1nn(-c2ccccc2)c(N)c1C#N
14.8 µM (inactive)

# GI50 lookup, item O=C(NNC(=S)Nc1ccccc1)c1nsc2ccccc12
40.6 µM (inactive)

# GI50 lookup, item COc1cc(OC)cc(Oc2nc3ccccc3nc2C(=O)O)c1
> 100 µM (inactive)

# GI50 lookup, item COC1(OC)CC(CO)(CNc2nc(N)nc(Cl)c2/C=N\O)C1
> 100 µM (inactive)

# GI50 lookup, item O=C(O)c1cccc2c1/C(=N/Nc1ccccc1)CC2
> 100 µM (inactive)

# GI50 lookup, item O=C(CCCn1cnc([N+](=O)[O-])n1)NCCn1ccnc1[N+](=O)[O-]
> 100 µM (inactive)

# GI50 lookup, item COC(=O)CC1(O)C(C=C(C)C)C(C(=O)OC)C(=O)C(C(=O)OC)C1C(=O)OC (stereo unspecified)
> 100 µM (inactive)

# GI50 lookup, item CN(C)C(=O)Oc1c(Br)cc(Br)cc1C(=O)OCc1ccccc1
41.1 µM (inactive)
